- assay: 13-week rat toxicity and toxicokinetic study
- Type: in vivo
- testContext: male, Crl:CD(SD)IGS BR, rat, in vivo, po, 25 mg/kg/day, males, 25 mg/kg/day, Day 87
reportedMetric: Tmax (h)
The answer is to be given in h; state only the numeric part.

Look at this compound and give its reported Tmax. Clc1ccc([C@]23CNC[C@H]2C3)cc1Cl
2

* * *

- assay: 2-week rat toxicology and toxicokinetic study
- Format: in vivo
- testContext: female, Crl:CD (SD)IGS BR, rat, in vivo, po, 10 mg/kg/day, females, 10 mg/kg/day, Day 13
reportedMetric: Cmax (ng/mL)
The answer is to be given in ng/mL; state only the numeric part.

Look at this compound and give its reported Cmax. Clc1ccc([C@]23CNC[C@H]2C3)cc1Cl [amitifadine]
1150
